Target: furin, P09958;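 further: purified furin at 1:10 enzyme:substrate in 50 mM HEPES pH 7.5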
Sequence (P09958 whole entry): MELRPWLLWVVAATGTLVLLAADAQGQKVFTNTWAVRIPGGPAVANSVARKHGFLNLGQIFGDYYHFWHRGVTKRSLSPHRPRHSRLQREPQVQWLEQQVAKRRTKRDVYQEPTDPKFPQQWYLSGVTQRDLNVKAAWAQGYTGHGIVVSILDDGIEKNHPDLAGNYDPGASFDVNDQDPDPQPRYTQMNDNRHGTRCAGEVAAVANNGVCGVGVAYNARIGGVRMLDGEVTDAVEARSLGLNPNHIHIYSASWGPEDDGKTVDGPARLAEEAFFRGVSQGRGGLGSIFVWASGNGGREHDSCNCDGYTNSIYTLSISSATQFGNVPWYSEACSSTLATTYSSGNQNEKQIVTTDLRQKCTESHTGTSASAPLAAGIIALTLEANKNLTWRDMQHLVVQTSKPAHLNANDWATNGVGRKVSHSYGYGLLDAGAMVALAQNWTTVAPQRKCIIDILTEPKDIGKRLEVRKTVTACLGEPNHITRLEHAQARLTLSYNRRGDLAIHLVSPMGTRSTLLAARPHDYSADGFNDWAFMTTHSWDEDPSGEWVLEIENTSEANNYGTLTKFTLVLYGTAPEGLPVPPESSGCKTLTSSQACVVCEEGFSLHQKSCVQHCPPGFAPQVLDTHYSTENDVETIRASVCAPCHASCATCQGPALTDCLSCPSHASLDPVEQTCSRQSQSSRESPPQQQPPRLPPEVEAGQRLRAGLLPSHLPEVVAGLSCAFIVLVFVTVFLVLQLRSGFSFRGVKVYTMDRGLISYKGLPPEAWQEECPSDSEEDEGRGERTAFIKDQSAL
Experiment: furin cleavage Z-score vs untreated control; higher = more cleavage, active = 3.5 or more, inactive = 1 or less, 8 variable residues between constant flanks
Details: 15 min
This is one part of the list. The true hit rate is not given.
Answer with one of the outcomes given here: yes (1) for active, no (0) for inactive

Example entries begin here.
CAKPSKLKRSAGNASASA [FS-546] = yes (1)
CALPCRPQRSAGNASASA [FS-612] = no (0)
CAQPSRQKRSAGNASASA [FS-480] = yes (1)
CAVFQRKRRGAGNASASA [FS-1578] = yes (1)
CAICSRAARGAGNASASA [FS-1534] = no (0)

Task item: Which outcome did this test record for the sequence CAPPQRTQRSAGNASASA [FS-1049] ?
Reply: yes (1)

Task item: Hi team, can someone confirm the assay call for CAKDSRQKRSAGNASASA [FS-670] ?
Reply: yes (1)

Task item: Fill in: this test's call for CASPSGQKRSAGNASASA [FS-723] is ___
Reply: no (0)

Task item: Look up the recorded call for CAVSVRRKRQAGNASASA [FS-516] in this test.
Reply: yes (1)

Task item: Given CAEANAEDVVAGNASASA [HC1366] , state the outcome it received in this test.
Reply: no (0)

Task item: Please let me know the test result on file for CAYLNRKRRGAGNASASA [FS-634] .
Reply: yes (1)

Task item: For CARRGRTGRGAGNASASA [HC904] , what call appears in the results of this test?
Reply: no (0)

Task item: Dear colleague, could you share the recorded outcome for CAPAQRLARSAGNASASA [FS-1471] when you have a moment?
Reply: yes (1)

Task item: Please let me know the test result on file for CARKGRSYGSAGNASASA [FS-1902] .
Reply: yes (1)
